Biological target: mouse trypsin (m-trypsin)
Assay: Inhibitory activity of trypsin enzyme (mouse trypsin purified from small intestine contents, BZiPAR fluorescent substrate)
Conditions: mouse trypsin diluted 1/50, BZiPAR substrate, 30 minutes at room temperature
READOUT_LABEL: IC50 (nM)
Response body: numeric value in nM, unit text excluded.

# TEST_SMILES, IC50 (nM)
data = [
    ("CC(C)(Oc1ccc(C[C@H](NC(=O)Cc2ccc(OC(=O)c3ccc(NC(=N)N)cc3)cc2Cl)C(=O)O)cc1)C(=O)O", 0.64),
    ("N=C(N)Nc1ccc(C(=O)Oc2ccc(CC(=O)N(CCC(=O)O)[C@@H](Cc3ccccc3)C(=O)O)c(Cl)c2)cc1", 0.38),
    ("CN(C(=O)Cc1ccc(OC(=O)c2ccc(NC(=N)N)cc2)cc1Cl)[C@@H](Cc1ccccc1)C(=O)O", 0.6),
]

Request: Report IC50 for "CN(C(=O)N(CC(=O)O)Cc1csc(C(=O)O)c1)c1ccc(OC(=O)c2ccc(NC(=N)N)cc2)cc1Cl"
Result: 0.44

Request: Report IC50 for "N=C(N)Nc1ccc(C(=O)Oc2ccc(CC(=O)N[C@@H](Cc3ccc(OCC(=O)O)cc3)C(=O)O)c(Cl)c2)cc1"
Result: 0.64

Request: Report IC50 for "N=C(N)Nc1ccc(C(=O)Oc2ccc(CC(=O)N(CC(=O)O)[C@@H](Cc3ccccc3)C(=O)O)c(Cl)c2)cc1"
Result: 0.45

Request: Report IC50 for "CN(C(=O)CN(CC(=O)O)Cc1cccc(C(=O)O)c1)c1ccc(OC(=O)c2ccc(NC(=N)N)cc2)cc1Cl"
Result: 0.39
